Attribution: patent US20240083886A1

TESTED_TARGET: GLP-1 Receptor (Homo sapiens)
PROCEDURE_DETAILS: GLP-1R agonist cAMP stimulation assay
Format: cell-based
EXPERIMENTAL_CONDITIONS: HEK293/GLP1R/CRE-LUC cells, cAMP dynamic 2 Kit (Cisbio), 30 min incubation at 37° C.; read-out: EC50
Consider the cut-off 0.5 nM. If the recorded EC50 is strictly smaller, the label is Condition met; if not, the label is Condition not met.

MOLECULE	TESTED_TARGET	LABEL_VALUE
COc1cncc(-c2cc3nc(CN4CCC(Oc5cccc(Cc6ccc(Cl)cc6F)n5)CC4)n(C[C@@H]4CCO4)c3cn2)n1 [Compound 187a]	GLP-1 Receptor (Homo sapiens)	Condition not met
COCCOc1ccc(C(=O)Nc2ccc3c(c2)nc(CN2CCC(Oc4ccnc(Cc5ccc(Cl)cc5F)n4)CC2)n3C[C@@H]2CCO2)cn1 [Compound 115a]	GLP-1 Receptor (Homo sapiens)	Condition not met
Fc1cc(Cl)ccc1Cc1cccc(OC2CCN(Cc3nc4cc(-c5nnn[nH]5)ncc4n3C[C@@H]3CCO3)CC2)n1 [Compound 176a]	GLP-1 Receptor (Homo sapiens)	Condition met
Fc1cc(Cl)ccc1Cc1ncc(F)c(OC2CCN(Cc3nc4cc(-c5nnn[nH]5)ncc4n3C[C@@H]3CCO3)CC2)n1 [Compound 175a]	GLP-1 Receptor (Homo sapiens)	Condition met
Cc1ncccc1C(=O)Nc1ccc2c(c1)nc(CN1CCC(Oc3ccnc(Cc4ccc(Cl)cc4)n3)CC1)n2C[C@@H]1CCO1 [Compound 103a]	GLP-1 Receptor (Homo sapiens)	Condition met
Cc1ccc(C(=O)Nc2ccc3c(c2)nc(CN2CCC(Oc4ccnc(Cc5ccc(Cl)cc5)n4)CC2)n3C[C@@H]2CCO2)cn1 [Compound 104a]	GLP-1 Receptor (Homo sapiens)	Condition not met
O=c1[nH]c(-c2cc3nc(CN4CCC(Oc5ccnc(Cc6ccc(Cl)cc6)n5)CC4)n(C[C@@H]4CCO4)c3cn2)no1 [Compound 145a]	GLP-1 Receptor (Homo sapiens)	Condition met
Fc1cc(Cl)ccc1Cc1nccc(OC2CCN(Cc3nc4cc(-c5nnn[nH]5)ncc4n3C[C@@H]3CCO3)CC2)n1 [Compound 177a]	GLP-1 Receptor (Homo sapiens)	Condition met
FC(F)(F)c1nnc(-c2ccc3c(c2)nc(CN2CCC(Oc4ccnc(Cc5ccc(Cl)cc5)n4)CC2)n3C[C@H]2CCOC2)[nH]1 [Compound 148a]	GLP-1 Receptor (Homo sapiens)	Condition not met
O=C(O)c1ccc2c(c1)nc(CN1CCC(Oc3ccnc(Cc4ccc(Cl)cc4F)n3)CC1)n2C[C@@H]1CCO1 [Compound 135a]	GLP-1 Receptor (Homo sapiens)	Condition met
Fc1cnc(Cc2ccc(Cl)cc2)nc1OC1CCN(Cc2nc3cc(-c4nnc(C(F)(F)F)[nH]4)ncc3n2C[C@@H]2CCO2)CC1 [Compound 149a]	GLP-1 Receptor (Homo sapiens)	Condition met
CC(=O)Nc1ccc2c(c1)nc(CN1CCC(Oc3cccc(Cc4ccc(Cl)cc4F)n3)CC1)n2C[C@@H]1CCO1 [Compound 160a]	GLP-1 Receptor (Homo sapiens)	Condition not met

----------
TESTED_TARGET: GLP-1 Receptor (Homo sapiens, UniProt P43220)
Sequence (P43220 24-463, species assumed): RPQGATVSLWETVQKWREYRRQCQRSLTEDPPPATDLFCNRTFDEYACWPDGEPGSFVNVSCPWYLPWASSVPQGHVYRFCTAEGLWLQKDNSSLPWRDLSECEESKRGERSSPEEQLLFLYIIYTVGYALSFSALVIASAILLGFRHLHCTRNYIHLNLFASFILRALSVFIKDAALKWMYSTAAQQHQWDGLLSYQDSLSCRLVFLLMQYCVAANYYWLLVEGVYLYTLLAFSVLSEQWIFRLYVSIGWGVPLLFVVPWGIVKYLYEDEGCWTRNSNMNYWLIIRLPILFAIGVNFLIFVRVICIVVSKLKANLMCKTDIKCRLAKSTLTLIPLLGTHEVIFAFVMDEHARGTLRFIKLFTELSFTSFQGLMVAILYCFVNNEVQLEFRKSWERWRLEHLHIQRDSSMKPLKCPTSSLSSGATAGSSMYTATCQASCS
PROCEDURE_DETAILS: GLP-1R agonist cAMP stimulation assay
Type: cell-based
EXPERIMENTAL_CONDITIONS: HEK293/GLP1R/CRE-LUC cells, cAMP dynamic 2 Kit (Cisbio), 30 min incubation at 37° C.; read-out: EC50
# log10(EC50) per entry
MEASURED_ENDPOINT: log10(EC50) (log10 of the value in nM)

COMPOUND	TESTED_TARGET	log10(EC50)
O=c1[nH]c(-c2ccc3c(c2)nc(CN2CCC(Oc4cccc(Cc5ccc(Cl)cc5F)n4)CC2)n3C[C@@H]2CCO2)no1 [Compound 109a]	GLP-1 Receptor (Homo sapiens, UniProt P43220)	1.18
O=C(O)c1ccc2c(c1)nc(CN1CCC(Oc3cccc(Cc4ccc(Cl)cc4F)n3)CC1)n2C[C@@H]1CCO1 [Compound 188a]	GLP-1 Receptor (Homo sapiens, UniProt P43220)	1.20
Fc1cc(Cl)ccc1Cc1nccc(OC2CCN(Cc3nc4cc(-c5nnc(C(F)(F)F)[nH]5)ncc4n3C[C@@H]3CCO3)CC2)n1 [Compound 138a]	GLP-1 Receptor (Homo sapiens, UniProt P43220)	-1.52
FC1(F)CCN(Cc2cccc(OC3CCN(Cc4nc5cc(-c6nnc(C(F)(F)F)[nH]6)ncc5n4C[C@@H]4CCO4)CC3)n2)CC1 [Compound 184a]	GLP-1 Receptor (Homo sapiens, UniProt P43220)	1.11
Fc1cnc(Cc2ccc(Cl)cc2)nc1OC1CCN(Cc2nc3cc(-c4nnc(C(F)(F)F)[nH]4)ccc3n2C[C@H]2CCOC2)CC1 [Compound 147a]	GLP-1 Receptor (Homo sapiens, UniProt P43220)	1.04
